Ref: patent US20070191393A1

Form: system (Tie-2 (Homo sapiens, UniProt Q02763)), quantity (pIC50), values below.
Reminder that pIC50 means the negative base-10 logarithm of the concentration expressed in mol/L.

Completed entries (count: 2):
# molecule, quantitativeReadout
records = [
    ("CCOC(=O)N=S(C)(=O)c1ccc2cc1NCCCCNc1nc(ncc1Br)N2 (racemic)", 5.53),
    ("CCCOC(=O)N=S(C)(=O)c1ccc2cc1OCCCCNc1nc(ncc1Br)N2 (racemic)", 4.77),
]

Note: attention shifts to another entry.
IN: Fill in pIC50 for CCNC(=O)N=S(C)(=O)c1ccc2cc1NCCCCNc1nc(ncc1Br)N2 (racemic) tested with Tie-2 (Homo sapiens, UniProt Q02763).
Sequence (Q02763 23-1124, species assumed): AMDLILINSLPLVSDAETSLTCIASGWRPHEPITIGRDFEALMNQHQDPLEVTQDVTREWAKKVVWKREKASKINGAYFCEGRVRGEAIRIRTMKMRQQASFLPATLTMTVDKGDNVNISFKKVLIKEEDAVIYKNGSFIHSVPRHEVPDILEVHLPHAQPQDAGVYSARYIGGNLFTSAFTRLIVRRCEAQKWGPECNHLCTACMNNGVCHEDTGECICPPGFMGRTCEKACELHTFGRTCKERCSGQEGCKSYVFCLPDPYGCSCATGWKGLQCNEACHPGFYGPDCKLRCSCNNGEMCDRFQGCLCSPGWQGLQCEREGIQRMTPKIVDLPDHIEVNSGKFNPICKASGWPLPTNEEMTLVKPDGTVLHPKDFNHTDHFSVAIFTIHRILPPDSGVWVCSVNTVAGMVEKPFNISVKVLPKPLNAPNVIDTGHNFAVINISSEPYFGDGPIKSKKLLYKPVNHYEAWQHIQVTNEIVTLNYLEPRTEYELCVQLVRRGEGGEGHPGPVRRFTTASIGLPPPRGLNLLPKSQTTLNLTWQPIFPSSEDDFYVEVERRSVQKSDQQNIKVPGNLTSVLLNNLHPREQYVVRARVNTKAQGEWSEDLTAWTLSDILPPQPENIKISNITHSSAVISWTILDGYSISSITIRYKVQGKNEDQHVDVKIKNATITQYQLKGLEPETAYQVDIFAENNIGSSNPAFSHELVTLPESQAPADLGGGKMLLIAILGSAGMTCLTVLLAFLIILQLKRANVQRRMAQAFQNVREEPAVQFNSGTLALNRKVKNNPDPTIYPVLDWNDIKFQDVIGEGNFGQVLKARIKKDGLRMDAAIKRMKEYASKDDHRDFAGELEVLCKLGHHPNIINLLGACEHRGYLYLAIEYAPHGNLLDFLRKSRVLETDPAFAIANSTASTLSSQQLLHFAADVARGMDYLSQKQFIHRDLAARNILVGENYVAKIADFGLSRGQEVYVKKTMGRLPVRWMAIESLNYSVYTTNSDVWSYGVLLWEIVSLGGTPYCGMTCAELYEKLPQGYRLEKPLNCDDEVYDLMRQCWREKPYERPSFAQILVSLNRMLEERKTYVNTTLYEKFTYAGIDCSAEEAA
OUT: 5.85

====

assaySystem: c-kit (Homo sapiens)
Sequence (P10721 26-976): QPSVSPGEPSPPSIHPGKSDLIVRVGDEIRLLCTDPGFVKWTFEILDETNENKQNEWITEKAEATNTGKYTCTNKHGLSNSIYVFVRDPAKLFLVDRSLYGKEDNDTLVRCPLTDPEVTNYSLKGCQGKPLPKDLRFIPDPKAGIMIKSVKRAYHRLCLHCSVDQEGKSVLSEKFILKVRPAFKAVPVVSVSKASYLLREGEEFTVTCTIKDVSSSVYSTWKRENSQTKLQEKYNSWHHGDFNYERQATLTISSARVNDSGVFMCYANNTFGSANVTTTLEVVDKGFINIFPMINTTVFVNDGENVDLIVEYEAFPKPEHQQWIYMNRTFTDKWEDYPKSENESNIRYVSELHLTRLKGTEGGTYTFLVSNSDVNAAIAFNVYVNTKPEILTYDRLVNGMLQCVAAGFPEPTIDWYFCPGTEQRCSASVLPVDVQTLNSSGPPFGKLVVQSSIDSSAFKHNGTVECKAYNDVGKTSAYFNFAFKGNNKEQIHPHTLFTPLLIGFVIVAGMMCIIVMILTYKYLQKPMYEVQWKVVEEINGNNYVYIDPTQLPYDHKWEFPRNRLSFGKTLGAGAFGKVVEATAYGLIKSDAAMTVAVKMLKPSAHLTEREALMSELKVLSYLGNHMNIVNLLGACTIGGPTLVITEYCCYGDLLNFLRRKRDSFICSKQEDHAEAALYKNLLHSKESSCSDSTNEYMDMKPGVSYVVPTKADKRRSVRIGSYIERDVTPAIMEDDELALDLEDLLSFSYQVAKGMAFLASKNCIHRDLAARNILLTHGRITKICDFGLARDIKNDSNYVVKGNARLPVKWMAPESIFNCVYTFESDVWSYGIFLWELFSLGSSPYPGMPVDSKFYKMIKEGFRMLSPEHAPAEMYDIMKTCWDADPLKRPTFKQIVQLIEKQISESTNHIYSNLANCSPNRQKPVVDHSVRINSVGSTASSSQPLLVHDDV
endpoint: IC50 (nM)
Numbers only; they are read as nM.

Completed entries (count: 5):
# molecule, u, IC50
measured = [
    ("CCOC(=O)N=S(C)(=O)c1ccc2cc1NCCCCNc1nc(ncc1Br)N2 (single isomer, unassigned) [Example 3]", "nM", 64),
    ("CCCS(=O)(=O)N=S(C)(=O)c1ccc2cc1NCCCCNc1nc(ncc1Br)N2 (racemic)", "nM", 17),
    ("CCOC(=O)N=S(C)(=O)c1ccc2cc1NCCCCNc1nc(ncc1I)N2 (racemic)", "nM", 23),
    ("CCNC(=O)N=S(C)(=O)c1ccc2cc1NCCCCNc1nc(ncc1Br)N2 (racemic)", "nM", 14),
    ("CCCOC(=O)N=S(C)(=O)c1ccc2cc1OCCCCNc1nc(ncc1Br)N2 (racemic)", "nM", 357),
]

Note: attention shifts to another entry.
IN: Identify measured IC50 associated with CCOC(=O)N=S(C)(=O)c1ccc2cc1NCCCCNc1nc(ncc1Br)N2 (single isomer, unassigned) [Example 2]
OUT: 46

====

assaySystem: CDK1/CycB (Homo sapiens)
Construct: GST
Sequence (P06493 whole entry): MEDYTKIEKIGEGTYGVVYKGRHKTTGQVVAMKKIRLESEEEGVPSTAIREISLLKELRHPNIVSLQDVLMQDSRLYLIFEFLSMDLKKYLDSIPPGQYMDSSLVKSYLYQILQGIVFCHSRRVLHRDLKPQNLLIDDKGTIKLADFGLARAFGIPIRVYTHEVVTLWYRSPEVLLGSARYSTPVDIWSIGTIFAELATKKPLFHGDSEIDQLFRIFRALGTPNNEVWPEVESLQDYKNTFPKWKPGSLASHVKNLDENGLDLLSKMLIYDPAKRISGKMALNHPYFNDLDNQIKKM
Sequence (P14635 whole entry partner): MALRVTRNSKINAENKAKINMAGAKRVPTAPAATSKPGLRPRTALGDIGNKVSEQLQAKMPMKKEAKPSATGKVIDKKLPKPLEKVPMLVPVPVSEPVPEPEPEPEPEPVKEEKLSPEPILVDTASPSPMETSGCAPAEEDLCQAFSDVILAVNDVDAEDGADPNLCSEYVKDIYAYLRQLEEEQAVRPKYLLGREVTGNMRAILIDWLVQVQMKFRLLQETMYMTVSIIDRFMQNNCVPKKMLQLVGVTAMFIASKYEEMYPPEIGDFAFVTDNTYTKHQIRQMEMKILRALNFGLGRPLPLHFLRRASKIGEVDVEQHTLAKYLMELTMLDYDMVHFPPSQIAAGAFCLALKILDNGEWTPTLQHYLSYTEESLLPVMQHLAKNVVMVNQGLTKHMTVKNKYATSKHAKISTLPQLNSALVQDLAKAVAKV
experiment: CDK1/CycB kinase assay
experimentalContext: 0.5 μM ATP, 22° C., 10 min
Examples of molecules with documented pIC50 follow.
Reminder that pIC50 means the negative base-10 logarithm of the concentration expressed in mol/L.

# molecule, pIC50
rows = [
    ("CCOC(=O)N=S(C)(=O)c1ccc2cc1NCCCCNc1nc(ncc1Br)N2 (single isomer, unassigned) [Example 2]", 6.98),
    ("CCCOC(=O)N=S(C)(=O)c1ccc2cc1OCCCCNc1nc(ncc1Br)N2 (racemic) [Example 8]", 6.36),
    ("CCCS(=O)(=O)N=S(C)(=O)c1ccc2cc1NCCCCNc1nc(ncc1Br)N2 (racemic) [Example 7]", 6.34),
    ("CCOC(=O)N=S(C)(=O)c1ccc2cc1NCCCCNc1nc(ncc1Br)N2 (racemic) [Example 1]", 6.76),
    ("CCOC(=O)N=S(C)(=O)c1ccc2cc1NCCCCNc1nc(ncc1I)N2 (racemic) [Example 4]", 6.93),
    ("CCNC(=O)N=S(C)(=O)c1ccc2cc1NCCCCNc1nc(ncc1Br)N2 (racemic) [Example 6]", 7.15),
]

Note: attention shifts to another entry.
IN: Fill in pIC50 for CCOC(=O)N=S(C)(=O)c1ccc2cc1NCCCCNc1nc(ncc1Br)N2 (single isomer, unassigned) [Example 3] tested with CDK1/CycB (Homo sapiens).
OUT: 6.68
